Task for the reader: assign each of the following compounds its reported blood radioactivity.
Experiment: Evaluation of Brain-Penetration and Bone-Seeking Properties of the Labeled Compound in Mouse
Assay type: in vivo
Settings: male ICR mouse, intravenous, 30 min
Response body: numeric value in % ID/g, unit text excluded.

// CNc1ncc(/C=C/c2nc3ccc(OC(CO)CF)cc3o2)s1 (stereo not shown) [[^18F]THK-761] : blood radioactivity value = 0.78

// OCC(CF)Oc1ccc2nc(/C=C/c3cnc(N4CCOCC4)s3)oc2c1 (stereo not shown) [[^18F]THK-702] : blood radioactivity value = 1.06

// CN(C)c1ncc(C=Cc2nc3ccc(OCCF)cc3o2)s1 [[^18F]BF-227, reference compound] : blood radioactivity value = 2.14

// CN(C)c1ncc(/C=C/c2nc3ccc(OC(CO)CF)cc3o2)s1 (stereo not shown) [[^18F]THK-763] : blood radioactivity value = 1.19

* * *

Target: Amyloid β protein 1-40 (Homo sapiens, UniProt P05067)
Construct: Amyloid β protein 1-40 (bought from Peptide Laboratory); purchased Peptide Laboratory
Sequence (P05067 672-711): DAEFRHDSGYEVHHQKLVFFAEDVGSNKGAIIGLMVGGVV
Assay: Fluorescence Congo Red Method
Format: binding
Details: 1 h; compound 10 μM, amyloid β protein 5 μM, Congo red 1 μM; read-out: Binding Percentage of Compound in the presence of 1 μM CR
Task for the reader: assign each of the following compounds its reported activity at 10 µM.
Response body: numeric value in %, unit text excluded.

Entry OCC(CF)Oc1ccc2nc(/C=C/c3cnc(N4CCCCC4)s3)oc2c1 (centres unmarked) [THK-713] ; assay system Amyloid β protein 1-40 (Homo sapiens, UniProt P05067); activity at 10 µM recorded at 3

Entry CN(C)c1ncc(/C=C/c2nc3ccc(OC(CO)CF)cc3o2)s1 (centres unmarked) [THK-763] ; assay system Amyloid β protein 1-40 (Homo sapiens, UniProt P05067); activity at 10 µM recorded at 7.5

Entry OCC(CF)Oc1ccc2nc(/C=C/c3cnc(N4CCCC4)s3)oc2c1 (centres unmarked) [THK-752] ; assay system Amyloid β protein 1-40 (Homo sapiens, UniProt P05067); activity at 10 µM recorded at 11.3

Entry OCC(CF)Oc1ccc2nc(/C=C/c3cnc(N4CCOCC4)s3)oc2c1 (centres unmarked) [THK-702] ; assay system Amyloid β protein 1-40 (Homo sapiens, UniProt P05067); activity at 10 µM recorded at 0.8

Entry OCC(CF)Oc1ccc2nc(/C=C/c3cnc(N4CCSCC4)s3)oc2c1 (centres unmarked) [THK-767] ; assay system Amyloid β protein 1-40 (Homo sapiens, UniProt P05067); activity at 10 µM recorded at 15.9

Entry CNc1ncc(/C=C/c2nc3ccc(OC(CO)CF)cc3o2)s1 (centres unmarked) [THK-761] ; assay system Amyloid β protein 1-40 (Homo sapiens, UniProt P05067); activity at 10 µM recorded at 7

Entry OCC(CF)Oc1ccc2nc(/C=C/c3cnc(N4CCCOCC4)s3)oc2c1 (centres unmarked) [THK-766] ; assay system Amyloid β protein 1-40 (Homo sapiens, UniProt P05067); activity at 10 µM recorded at 11.2

Entry CN1CCN(c2ncc(/C=C/c3nc4ccc(OC(CO)CF)cc4o3)s2)CC1 (centres unmarked) [THK-707] ; assay system Amyloid β protein 1-40 (Homo sapiens, UniProt P05067); activity at 10 µM recorded at 29.7

Entry FCCOc1ccc2nc(/C=C/c3cnc(N4CCOCC4)s3)oc2c1 [THK-525] ; assay system Amyloid β protein 1-40 (Homo sapiens, UniProt P05067); activity at 10 µM recorded at -6.4

Entry OCC(CF)Oc1ccc2nc(/C=C/c3cnc(N4CCCCCC4)s3)oc2c1 (centres unmarked) [THK-765] ; assay system Amyloid β protein 1-40 (Homo sapiens, UniProt P05067); activity at 10 µM recorded at 23

Entry OCC(CF)Oc1ccc2nc(/C=C/c3cnc(N4CCCOC4)s3)oc2c1 (centres unmarked) [THK-757] ; assay system Amyloid β protein 1-40 (Homo sapiens, UniProt P05067); activity at 10 µM recorded at 10.3

* * *

Assay: Brain Permeability Test Through HPLC
Type: in vivo
Details: mice, 2 minutes after intravenous administration, brain
Task for the reader: assign each of the following compounds its reported Brain Permeability: Brain.

// OCC(CF)Oc1ccc2nc(/C=C/c3cnc(N4CCOCC4)s3)oc2c1 (centres unmarked) : Brain Permeability: Brain value = 5.1 % ID/g or ml

// CN1CCN(c2ncc(/C=C/c3nc4ccc(OC(CO)CF)cc4o3)s2)CC1 (centres unmarked) : Brain Permeability: Brain value = 4.4 % ID/g or ml

// FCCOc1ccc2nc(/C=C/c3cnc(N4CCOCC4)s3)oc2c1 : Brain Permeability: Brain value = 7.9 % ID/g or ml

// OCC(CF)Oc1ccc2nc(/C=C/c3cnc(N4CCCCC4)s3)oc2c1 (centres unmarked) : Brain Permeability: Brain value = 5.9 % ID/g or ml

// OCC(CF)Oc1ccc2nc(/C=C/c3cnc(N4CCCC4)s3)oc2c1 (centres unmarked) : Brain Permeability: Brain value = 6.7 % ID/g or ml

* * *

Molecular target: Amyloid β protein 1-40 (Homo sapiens)
Construct: Amyloid β protein 1-40 (bought from Peptide Laboratory); purchased Peptide Laboratory
Test: Fluorescence Congo Red Method
Format: binding
Details: 1 h; compound 10 μM, amyloid β protein 5 μM, Congo red 0.1 μM; read-out: Binding Percentage of Compound in the presence of 0.1 μM CR
Task for the reader: assign each of the following compounds its reported activity at 10 µM.
Response body: numeric value in %, unit text excluded.

// OCC(CF)Oc1ccc2nc(/C=C/c3cnc(N4CCCOCC4)s3)oc2c1 (stereo not drawn) [THK-766] : activity at 10 µM value = 61

// OCC(CF)Oc1ccc2nc(/C=C/c3cnc(N4CCCOC4)s3)oc2c1 (stereo not drawn) [THK-757] : activity at 10 µM value = 52.4

// CN1CCN(c2ncc(/C=C/c3nc4ccc(OC(CO)CF)cc4o3)s2)CC1 (stereo not drawn) [THK-707] : activity at 10 µM value = 66.8

// OCC(CF)Oc1ccc2nc(/C=C/c3cnc(N4CCCCC4)s3)oc2c1 (stereo not drawn) [THK-713] : activity at 10 µM value = 58.2

// OCC(CF)Oc1ccc2nc(/C=C/c3cnc(N4CCSCC4)s3)oc2c1 (stereo not drawn) [THK-767] : activity at 10 µM value = 60

// OCC(CF)Oc1ccc2nc(/C=C/c3cnc(N4CCCCCC4)s3)oc2c1 (stereo not drawn) [THK-765] : activity at 10 µM value = 71.2

* * *

Assay: Brain Permeability Test Through HPLC
Assay type: in vivo
Settings: mice, 2 minutes after intravenous administration, plasma
Task for the reader: assign each of the following compounds its reported Brain Permeability: Plasma.

// FCCOc1ccc2nc(/C=C/c3cnc(N4CCOCC4)s3)oc2c1 : Brain Permeability: Plasma value = 3.1 % ID/g or ml

// OCC(CF)Oc1ccc2nc(/C=C/c3cnc(N4CCCC4)s3)oc2c1 (centres unmarked) : Brain Permeability: Plasma value = 1.9 % ID/g or ml

// OCC(CF)Oc1ccc2nc(/C=C/c3cnc(N4CCCCC4)s3)oc2c1 (centres unmarked) : Brain Permeability: Plasma value = 3.29 % ID/g or ml

// OCC(CF)Oc1ccc2nc(/C=C/c3cnc(N4CCOCC4)s3)oc2c1 (centres unmarked) : Brain Permeability: Plasma value = 2.7 % ID/g or ml

// CN1CCN(c2ncc(/C=C/c3nc4ccc(OC(CO)CF)cc4o3)s2)CC1 (centres unmarked) : Brain Permeability: Plasma value = 0.58 % ID/g or ml

* * *

Test system: histidine-requiring Salmonella typhimurium TA100 and TA98 strains
Assay: Mutagenicity Test (reverse mutation test)
Format: cell-based
Settings: reverse mutation test, -S9mix
Source text: In view of their use, it is desirable that the compounds of the invention have no mutagenicity or have little mutagenicity to a level causing no problem. […] Then, the number of the colonies grown through reverse mutation was counted. For counting it, used as a colony analyzer. […] When the colony analyzer could not be used owing to the deposition of the test compound or the cell growth inhibition, then the number of the colonies was counted with the naked eye. […]
measured metric: Relative Activity in the absence of S9Mix

> print(dat)
                                   compound  obs.value
1  CN(C)c1ncc(/C=C/c2nc3ccc(OC(CO)CF)cc3o2)s1 (stereo not shown)       3058
2  CC1(C)c2ccccc2N2CCC(=O)NC21/C=C/c1ccc(N2CCOCC2)cc1 (stereo not shown)      minus
3  OCC(CF)Oc1ccc2nc(/C=C/c3cnc(N4CCOCC4)s3)oc2c1 (stereo not shown)      minus
4  CNc1ncc(/C=C/c2nc3ccc(OC(CO)CF)cc3o2)s1 (stereo not shown)      11995
5  N#CC(C#N)=Cc1ncc(/C=C/c2nc3ccc(OCC(CO)CF)cc3o2)s1 (stereo not shown)      minus

// OCC(CF)COc1ccc2nc(/C=C/c3cnc(N4CCOCC4)s3)oc2c1 (stereo not shown) : Relative Activity in the absence of S9Mix value = minus

// FCCOc1ccc2nc(/C=C/c3cnc(N4CCOCC4)s3)oc2c1 : Relative Activity in the absence of S9Mix value = minus

Where do these numbers come from? They come from patent US7910579B2.
